- SUBJECT OF TEST: BRD9 (Homo sapiens, UniProt Q9H8M2)
- Sequence (Q9H8M2 whole entry): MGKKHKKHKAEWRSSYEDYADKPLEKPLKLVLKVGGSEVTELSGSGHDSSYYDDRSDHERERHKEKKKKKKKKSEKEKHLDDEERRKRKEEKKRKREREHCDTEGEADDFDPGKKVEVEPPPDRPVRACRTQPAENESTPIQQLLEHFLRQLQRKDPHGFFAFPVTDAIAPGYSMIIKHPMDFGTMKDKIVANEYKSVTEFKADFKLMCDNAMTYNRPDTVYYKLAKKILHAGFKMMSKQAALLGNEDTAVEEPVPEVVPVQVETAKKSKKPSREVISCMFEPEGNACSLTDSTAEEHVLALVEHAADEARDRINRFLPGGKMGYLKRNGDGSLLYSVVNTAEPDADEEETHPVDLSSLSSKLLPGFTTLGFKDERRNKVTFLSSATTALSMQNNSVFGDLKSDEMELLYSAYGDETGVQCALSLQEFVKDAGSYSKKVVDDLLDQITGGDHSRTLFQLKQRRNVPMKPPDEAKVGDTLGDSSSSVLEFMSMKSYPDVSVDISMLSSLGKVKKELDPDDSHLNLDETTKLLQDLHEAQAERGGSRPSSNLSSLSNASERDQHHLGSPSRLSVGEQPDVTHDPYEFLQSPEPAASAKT
- EXPERIMENTAL PROTOCOL: BRD9 degradation, HiBiT-BRD9 KI HEK293 (LgBiT) cells, NanoGlo Lytic Endpoint assay (Assay Protocol 1)
- Format: cell-based
- TEST CONTEXT: HEK293; Table 2; BRD9 degradation, Assay Protocol 1; 1 μM compound at 6 h of treatment; read-out: Assay 1 Dmax
- Method: HiBiT-BRD9 KI HEK293 (LgBiT) Cells (Promega CS3023412) were seeded at 8000 cells per well (38 μL) in sterile white bottom 384 well plates (Invitrogen 164610 or Greiner 781080) and incubated overnight at 37° C. with 5% CO2. The next day, compounds were prepared at 1000× final concentration in DMSO and diluted 1:100 in media (DMEM PAN Biotech P04-03550+10% FBS ATCC 302025). […]
Collected Dmax at 1 µM values appear next to each entry.

| COMPOUND | Dmax at 1 µM |
| --- | --- |
| COc1cc(-c2cn(C)c(=O)c(C)c2C)cc(OC)c1CN1CCN(C(=O)CCc2cccc3c2CCN(C(=O)/C(C#N)=C/c2nccs2)C3C)CC1 (mixture of isomers) | > 75% |
| COc1cc(-c2cn(C)c(=O)c3cnccc23)cc(OC)c1CN1CCC(Oc2cccc3c2CCN(C(=O)/C(C#N)=C/C(C)(C)C)C3C)CC1 (mixture of isomers) | 40 to 70% |
| COc1cc(-c2cn(C)c(=O)c3cnccc23)cc(OC)c1CN(C)Cc1ccc2c(c1)C(C)N(C(=O)/C(C#N)=C/c1cccc(Br)n1)CC2 (mixture of isomers) | 70 to 75% |
| COc1cc(-c2cn(C)c(=O)c3cnccc23)cc(OC)c1CN1CCN(Cc2cccc3c2CCN(C(=O)/C(C#N)=C/c2c(F)cccc2F)C3C)CC1 (mixture of isomers) | 40 to 70% |

Consider the additional compound presented here.
Query: Please report Dmax at 1 µM for the following compound: COc1cc(-c2cn(C)c(=O)c3cnccc23)cc(OC)c1CN1C2CC1CN(Cc1cccc3c1CCN(C(=O)/C(C#N)=C/C(C)(C)C)C3C)C2 (mixture of isomers)
Reply: 70 to 75%

====

- SUBJECT OF TEST: BRD9 (Homo sapiens)
- EXPERIMENTAL PROTOCOL: BRD9 degradation, HiBiT-BRD9 KI HEK293 (LgBiT) cells, NanoGlo Lytic Endpoint assay (Assay Protocol 1)
- Type: cell-based
- TEST CONTEXT: HEK293; Table 2; BRD9 degradation, Assay Protocol 1; 1 μM compound at 6 h of treatment; read-out: Assay 1 Dmax
// values below are reported Dmax at 1 µM

Query: Give recorded Dmax at 1 µM. COc1cc(-c2cn(C)c(=O)c3cnccc23)cc(OC)c1CN1CCN(Cc2cccc3c2CCN(C(=O)/C(C#N)=C\c2ccc(F)cn2)C3C)CC1 (mixture of isomers) [Compound A12]
Reply: 40 to 70%

Query: Look up and report measured Dmax at 1 µM for this entry: COc1cc(-c2cn(C)c(=O)c3cnccc23)cc(OC)c1CN1CCN(Cc2cccc3c2CCN(C(=O)/C(C#N)=C/c2nccs2)[C@H]3C)CC1 (single isomer, unassigned) [Compound A15]
Reply: 40 to 70%

Query: Tell me measured Dmax at 1 µM for COc1cc(-c2cn(C)c(=O)c3cnccc23)cc(OC)c1CN1CC2CC(C1)N2Cc1cccc2c1CCN(C(=O)/C(C#N)=C/C(C)(C)C)C2C (mixture of isomers) [Compound A41] please.
Reply: 70 to 75%

Query: Please report Dmax at 1 µM for the following molecule: COc1cc(-c2cn(C)c(=O)c3cnccc23)cc(OC)c1CN1CCN(Cc2cccc3c2CCN(C(=O)/C(C#N)=C/c2ncccc2F)C3C)CC1 (mixture of isomers) [Compound A42]
Reply: 40 to 70%

Query: Determine its reported Dmax at 1 µM: COc1cccc(/C=C(\C#N)C(=O)N2CCc3c(CN4CCN(Cc5c(OC)cc(-c6cn(C)c(=O)c(C)c6C)cc5OC)CC4)cccc3C2C)n1 (mixture of isomers) [Compound A67]
Reply: 40 to 70%

Query: Read the entry COc1cc(-c2cn(C)c(=O)c3cnccc23)cc(OC)c1CN1CCN(Cc2cccc3c2CCN(C(=O)/C(C#N)=C\C(C)(C)CF)C3C)CC1 (mixture of isomers) [Compound A18] and write its reported Dmax at 1 µM.
Reply: 40 to 70%

Query: Respond only with Dmax at 1 µM recorded for COc1cc(-c2cn(C)c(=O)c3cnccc23)cc(OC)c1CN1CCC(N(C)c2cccc3c2CCN(C(=O)/C(C#N)=C/C(C)(C)C)C3C)CC1 (centres unmarked) [Compound A30]
Reply: 40 to 70%

Query: Report Dmax at 1 µM for COc1cc(-c2cn(C)c(=O)c3cc(C(=O)NCCCCCOc4cccc(C5CCCN5C(=O)/C(C#N)=C/c5nccs5)c4)sc23)cc(OC)c1CN(C)C (mixture of isomers) [Compound A76]
Reply: 40 to 70%

Query: Supply measured Dmax at 1 µM of COc1cc(-c2cc(C)c(=O)n(C)c2)cc(OC)c1CN1CCN(Cc2cccc3c2CCN(C(=O)/C(C#N)=C/C2(F)CC2)C3C)CC1 (mixture of isomers) [Compound A61] in your reply.
Reply: > 75%

Query: Provide measured Dmax at 1 µM value, entry: COc1cc(-c2cn(C)c(=O)c3cnccc23)cc(OC)c1CN1CCN(Cc2cccc3c2CCN(C(=O)/C(C#N)=C\C(C)C)C3C)CC1 (mixture of isomers) [Compound A19]
Reply: 40 to 70%

Query: Tell me its Dmax at 1 µM given COc1cc(-c2cn(C)c(=O)c3cnccc23)cc(OC)c1CN(C)Cc1ccc2c(c1)CCN(C(=O)/C(C#N)=C/C(C)(C)C)C2C (mixture of isomers) [Compound A46] as the entry.
Reply: 40 to 70%

Query: Please give the documented Dmax at 1 µM of COc1cc(-c2cn(C)c(=O)c3cnccc23)cc(OC)c1CN1CCN(Cc2cccc3c2CCN(C(=O)/C(C#N)=C/c2nccs2)[C@@H]3C)CC1 (single isomer, unassigned) [Compound A14]
Reply: 40 to 70%

Query: Output Dmax at 1 µM of COc1cc(-c2cn(C)c(=O)c(C)c2C)cc(OC)c1CN1CCCN(Cc2cccc3c2CCN(C(=O)/C(C#N)=C/C2(F)CC2)C3C)CC1 (single isomer, unassigned) [Compound A69]
Reply: > 75%

Query: Check the records and state Dmax at 1 µM for COc1cc(-c2cn(C)c(=O)c3cnccc23)cc(OC)c1CN1CCN(Cc2cccc3c2CCN(C(=O)/C(C#N)=C\C2(F)CC2)C3C)CC1 (mixture of isomers) [Compound A22]
Reply: > 75%

Query: Identify the reported Dmax at 1 µM for the following entry. COc1cc(-c2cn(C)c(=O)c3cnccc23)cc(OC)c1CN1CCN(C(=O)c2ccc(C3CCCN3C(=O)/C(C#N)=C/c3nccs3)cc2)CC1 (mixture of isomers) [Compound A34]
Reply: 40 to 70%

Query: Respond only with Dmax at 1 µM recorded for COc1cc(-c2cn(C)c(=O)c3cc(C(=O)NCCOc4ccc5c(c4)CCN(C(=O)/C(C#N)=C/c4nccs4)C5C)sc23)cc(OC)c1CN(C)C (mixture of isomers) [Compound A74]
Reply: 40 to 70%

Query: Tell us which Dmax at 1 µM value is on record for COc1cc(-c2cn(C)c(=O)c3cnccc23)cc(OC)c1CN(C)Cc1cccc2c1CCN(C(=O)/C(C#N)=C/c1cccc(Br)n1)C2C (mixture of isomers) [Compound A50]
Reply: > 75%

Query: Indicate the recorded Dmax at 1 µM value for this molecule: COc1cc(-c2cn(C)c(=O)c3cnccc23)cc(OC)c1CN1CCN(Cc2cccc3c2CCN(C(=O)/C(C#N)=C/C(C)(C)C)[C@@H]3C)CC1 (single isomer, unassigned) [Compound A25]
Reply: 40 to 70%

Query: Let me know recorded Dmax at 1 µM for COc1cc(-c2cn(C)c(=O)c3cnccc23)cc(OC)c1CN1CC2CCC(C1)N2Cc1cccc2c1CCN(C(=O)/C(C#N)=C/C(C)(C)C)C2C (mixture of isomers) [Compound A48] , thanks.
Reply: > 75%

Query: Give the measured Dmax at 1 µM for COc1cc(-c2cn(C)c(=O)c3cnccc23)cc(OC)c1CN1CCN(Cc2cccc3c2CCN(C(=O)/C(C#N)=C/C2(C)COC2)C3C)CC1 (mixture of isomers) [Compound A27]
Reply: 40 to 70%
